Reference for the values: PubChem BioAssay (NCI)

Test system: SF-295 CNS
assay explanation: NCI tumour cell line growth inhibition, 48 h
Entries annotated with measured TGI
measured metric: TGI

• COc1cc(/C=C2\C[C@H]3[C@@H]4CC=C5C[C@@H](O)CC[C@]5(C)[C@H]4CC[C@]3(C)[C@H]2O)cc(OC)c1OC = 22.4 µM
• CC(=O)OC1CCN(C(=O)c2ccccc2)CC1CC1(c2cc3ccccc3[nH]2)OCCO1 (stereo not drawn) = > 100 µM
• CCOC(=O)/C(O)=C(/c1n[nH]c(=O)c2ccccc12)[N+](=O)[O-] = > 100 µM
• COc1ccc(C[C@@H]2Cc3cc(OC)c(OC)cc3CN2C)cc1 = > 100 µM
• COc1cc2c3c(n(CCCCOC(=O)C(F)(F)F)c(=O)c2cc1OC)-c1cc2c(cc1C3=O)OCO2 = > 100 µM
• O=C(O)CN1CCNCCN(CP(=O)(O)O)CC1 = > 100 µM
• N#C/C(=C\c1ccc(-c2ccc(Cl)cc2)o1)C(=O)Nc1ncc(Cc2ccc(Cl)cc2)s1 = 8.73 µM
• CCN(CC)CCCC(C)Nc1cnc(C(=O)Nc2ccc(Cl)c3cccnc23)cn1 (stereo not drawn) = 4.92 µM
• Cc1ccc(CC(=O)Nc2ccc(NC(=O)/C=C/NC(=O)/C=C/c3ccc(-c4ccccc4)cc3)cc2C(=O)c2ccccc2)cc1 = 3.05 µM
• CC1=NN(c2ccccc2)C(=O)C1N=Nc1ccc([As](=O)(O)O)c(O)c1 (stereo not drawn) = > 100 µM
• C=C1C(=O)O[C@@H]2[C@H]1C[C@@H](O)[C@H](C)[C@@](O)(C(=O)/C=C/C)[C@H]2OC(=O)C(C)CC (stereo partly drawn) = > 100 µM
• COC(=O)Nc1nc2ccc(Oc3ccc(NC(=O)Nc4cccc(C(=O)O)c4)cc3)cc2[nH]1 = > 21.7 µM
• CC(C)=CCC[C@H](C)[C@@H]1CC[C@]2(C)C3CC[C@]4(OC4(C)C)C(CCCO)[C@]3(C)CC[C@@]12C (stereo partly drawn) = 63.3 µM
• CCCCCCCC1(N=[N+]=[N-])C(=O)c2ccccc2N(C)C1=O (stereo not drawn) = > 100 µM
• Cc1ccc(Cl)c2c(=O)c3ccc([N+](=O)[O-])cc3sc12 = > 100 µM
• Cc1cc(O)cc2oc(=O)c3c(O)cc(O)cc3c12 = 63.6 µM
• O=C(Nc1cc(C(=O)Nc2cccc(S(=O)(=O)O)c2)cc(C(=O)Nc2cccc(S(=O)(=O)O)c2)c1)c1cccc(C(=O)Nc2cc(C(=O)Nc3cccc(S(=O)(=O)O)c3)cc(C(=O)Nc3cccc(S(=O)(=O)O)c3)c2)c1 = > 100 µM
• COc1cccc(C2c3cc4c(cc3OC(C)(O)C2C)OCO4)c1O (stereo not drawn) = 14.1 µM
